From: patent US20060258683A1

target: PPARγ (Homo sapiens, UniProt P37231); assay: PPAR-gamma EC50, functional cell (transactivation) assay
Sequence (P37231 238-503 limits assumed): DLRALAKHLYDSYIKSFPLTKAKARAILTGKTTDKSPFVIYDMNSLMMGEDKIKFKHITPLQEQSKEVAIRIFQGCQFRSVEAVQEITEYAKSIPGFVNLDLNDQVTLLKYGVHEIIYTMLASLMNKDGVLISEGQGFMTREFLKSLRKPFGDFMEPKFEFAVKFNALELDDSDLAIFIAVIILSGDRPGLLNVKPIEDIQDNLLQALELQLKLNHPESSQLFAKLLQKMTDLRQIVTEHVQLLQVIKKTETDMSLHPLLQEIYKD
outcome measure: EC50

Example entries and their recorded answers appear below.
>  <compound>
CC(C)(Oc1ccc(S(=O)(=O)N2CCN(c3ccc(Cl)c(Cl)c3)CC2)cc1)C(=O)O

>  <outcome measure>
EC50

>  <experimental value>
1 to 100 µM

$$$$
>  <compound>
Cc1cc(S(=O)(=O)N2CCN(c3cccc(Cl)c3)CC2)ccc1OC(C)(C)C(=O)O

>  <outcome measure>
EC50

>  <experimental value>
1 to 100 µM

$$$$
>  <compound>
Cc1cccc(N2CCN(S(=O)(=O)c3ccc(OC(C)(C)C(=O)O)c(C)c3)CC2C)c1 (stereo not drawn)

>  <outcome measure>
EC50

>  <experimental value>
1 to 100 µM

$$$$

Look up EC50: Cc1cc(S(=O)(=O)N2CCN(c3ccccc3F)CC2)ccc1OC(C)(C)C(=O)O
1 to 100 µM

Look up EC50: Cc1cc(S(=O)(=O)N2CCN(CCc3ccccc3)CC2)ccc1OC(C)(C)C(=O)O
> 100 µM

Look up EC50: CC(C)(Oc1ccc(S(=O)(=O)N2CCN(c3ccc(F)cc3)CC2)cc1)C(=O)O
> 100 µM

Look up EC50: Cc1cc(S(=O)(=O)N2CCN(c3ccc([N+](=O)[O-])cc3)CC2)ccc1OC(C)(C)C(=O)O
1 to 100 µM

Look up EC50: CC(C)(Oc1ccc(S(=O)(=O)N2CCN(c3ccccc3)CC2)cc1)C(=O)O
> 100 µM

Look up EC50: CCc1cnc(N2CCN(S(=O)(=O)c3ccc(OC(C)(C)C(=O)O)cc3)CC2)nc1
1 to 100 µM
